# key: entry, value: EC50
# Species: Homo sapiens
# test.method.notes: In vitro inhibition of collagen-induced human platelet aggregation.
# Assay type: functional, organism-based
# test.context: Homo sapiens; read-out: EC50

[
  {
    "molecule": "O=CNc1ccc(C2=NNC(=O)CC2)cc1",
    "unit.info": "µg/mL",
    "relation.operator": "=",
    "EC50": 5.27
  },
  {
    "molecule": "Nc1ccc(C2=NNC(=O)CC2)cc1",
    "unit.info": "µg/mL",
    "relation.operator": "=",
    "EC50": 14.8
  },
  {
    "molecule": "CC(=O)Nc1ccc(C2=NNC(=O)C(C)C2)cc1 (centres undefined)",
    "unit.info": "µg/mL",
    "relation.operator": "=",
    "EC50": 46.4
  },
  {
    "molecule": "CC1CC(c2ccc(N)cc2)=NNC1=O (centres undefined)",
    "unit.info": "µg/mL",
    "relation.operator": "=",
    "EC50": 46.9
  },
  {
    "molecule": "CC(=O)Nc1ccc(C2=NNC(=O)CC2)cc1",
    "unit.info": "µg/mL",
    "relation.operator": "=",
    "EC50": 1.09
  },
  {
    "molecule": "CCCCC[C@H](O)/C=C/[C@@H]1[C@H]2C/C(=C/CCCC(=O)O)O[C@H]2C[C@H]1O",
    "unit.info": "µg/mL",
    "relation.operator": "=",
    "EC50": 0.00165
  },
  {
    "molecule": "Nc1cccc(C2=NNC(=O)CC2)c1",
    "unit.info": "µg/mL",
    "relation.operator": ">",
    "EC50": 46.4
  },
  {
    "molecule": "CCC(Cl)C(=O)Nc1ccc(C2=NNC(=O)CC2)cc1 (centres undefined)",
    "unit.info": "µg/mL",
    "relation.operator": "=",
    "EC50": 3.16
  },
  {
    "molecule": "CC(C)(CCl)C(=O)Nc1ccc(C2=NNC(=O)CC2)cc1",
    "unit.info": "µg/mL",
    "relation.operator": "=",
    "EC50": 9.24
  },
  {
    "molecule": "CN1N=C(c2ccc(NC(=O)CCl)cc2)CCC1=O",
    "unit.info": "µg/mL",
    "relation.operator": ">",
    "EC50": 46.4
  },
  {
    "molecule": "C[N+]1(CC(=O)Nc2ccc(C3=NNC(=O)CC3)cc2)CCCC1.[Cl-]",
    "unit.info": "µg/mL",
    "relation.operator": ">",
    "EC50": 46.4
  },
  {
    "molecule": "CN1N=C(c2ccc(N)cc2)CCC1=O",
    "unit.info": "µg/mL",
    "relation.operator": ">",
    "EC50": 46.4
  },
  {
    "molecule": "CC1CC(=O)NN=C1c1ccc(NC(=O)CCCCl)cc1 (centres undefined)",
    "unit.info": "µg/mL",
    "relation.operator": "=",
    "EC50": 1.66
  },
  {
    "molecule": "CCC(Cl)C(=O)Nc1ccc(C2=NNC(=O)CC2C)cc1 (centres undefined)",
    "unit.info": "µg/mL",
    "relation.operator": "=",
    "EC50": 0.069
  }
]

====

# Organism: Homo sapiens
# test.method.notes: In vitro inhibition of collagen-induced human platelet aggregation.
# Assay type: functional, organism-based
# test.context: Homo sapiens; read-out: EC50
I'd appreciate it if you marked entries True when EC50 is lower than 3 µg/mL and False when it is not.

[
  {
    "compound": "CCCC(=O)Nc1ccc(C2=NNC(=O)CC2)cc1",
    "label.class": "True"
  },
  {
    "compound": "CCCCC(=O)Nc1ccc(C2=NNC(=O)CC2)cc1",
    "label.class": "False"
  },
  {
    "compound": "O=C1CCC(c2ccc(NC(=O)CCCl)cc2)=NN1",
    "label.class": "True"
  },
  {
    "compound": "CCC(=O)Nc1ccc(C2=NNC(=O)CC2)cc1",
    "label.class": "True"
  },
  {
    "compound": "CC(Cl)C(=O)Nc1ccc(C2=NNC(=O)CC2)cc1 (configuration not stated)",
    "label.class": "True"
  },
  {
    "compound": "CC(=O)Nc1cccc(C2=NNC(=O)CC2)c1",
    "label.class": "False"
  },
  {
    "compound": "CC(Cl)CC(=O)Nc1ccc(C2=NNC(=O)CC2C)cc1 (configuration not stated)",
    "label.class": "False"
  },
  {
    "compound": "CC(Cl)C(=O)Nc1ccc(C2=NNC(=O)C(C)C2)cc1 (configuration not stated)",
    "label.class": "False"
  },
  {
    "compound": "CC(=O)Nc1ccc(C2=NN(C)C(=O)CC2)cc1",
    "label.class": "False"
  },
  {
    "compound": "O=C1CCC(c2ccc(NC(=O)CCCCl)cc2)=NN1",
    "label.class": "False"
  },
  {
    "compound": "CC1CC(c2ccc(NC(=O)CCl)cc2)=NNC1=O (configuration not stated)",
    "label.class": "False"
  }
]

====

# key: entry, value: EC50
# Organism: Homo sapiens
# test.method.notes: In vitro inhibition of collagen-induced human platelet aggregation.
# Assay type: functional, organism-based
# test.context: Homo sapiens; read-out: EC50

[
  {
    "molecule": "CC(C)NCC(=O)Nc1ccc(C2=NNC(=O)CC2)cc1.Cl",
    "EC50": "~21.5 µg/mL"
  },
  {
    "molecule": "CCCNCC(=O)Nc1ccc(C2=NNC(=O)CC2)cc1.Cl",
    "EC50": "~10 µg/mL"
  },
  {
    "molecule": "CCC(C)NCC(=O)Nc1ccc(C2=NNC(=O)CC2)cc1.Cl (stereo not given)",
    "EC50": "~21.5 µg/mL"
  },
  {
    "molecule": "CCN(CC)CC(=O)Nc1ccc(C2=NNC(=O)CC2)cc1.Cl",
    "EC50": "~10 µg/mL"
  },
  {
    "molecule": "O=C1CCC(c2ccc(NC(=O)CN3CCOCC3)cc2)=NN1",
    "EC50": "~21.5 µg/mL"
  }
]
